Data origin, for the record: the supplement of paper PMC6555819

# System: PPARg:RXRa 30nM:10nM, anti-RXR (NR concentration 30 nM, RXRa partner concentration 10 nM)
# Assay: PBM binding z-score (relative to random genomic background probes); higher = stronger binding; sequences stand for … in GC…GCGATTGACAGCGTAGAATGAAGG
# cutoff 1 applies to PBM binding z-score; >= gives True, < gives False

>  <Biopolymer Sequence>
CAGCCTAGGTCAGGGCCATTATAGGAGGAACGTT

>  <Cat>
False

$$$$
>  <Biopolymer Sequence>
CGGACGAGGGCATGAGTTGATAGCAAATGCCGAT

>  <Cat>
False

$$$$
>  <Biopolymer Sequence>
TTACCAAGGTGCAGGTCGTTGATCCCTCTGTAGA

>  <Cat>
False

$$$$
>  <Biopolymer Sequence>
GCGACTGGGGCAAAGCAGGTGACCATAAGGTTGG

>  <Cat>
False

$$$$
>  <Biopolymer Sequence>
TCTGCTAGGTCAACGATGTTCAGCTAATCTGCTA

>  <Cat>
True

$$$$
>  <Biopolymer Sequence>
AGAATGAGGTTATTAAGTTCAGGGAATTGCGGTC

>  <Cat>
False

$$$$
>  <Biopolymer Sequence>
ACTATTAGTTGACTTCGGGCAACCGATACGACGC

>  <Cat>
False

$$$$
>  <Biopolymer Sequence>
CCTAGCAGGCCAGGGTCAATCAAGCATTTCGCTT

>  <Cat>
False

$$$$
>  <Biopolymer Sequence>
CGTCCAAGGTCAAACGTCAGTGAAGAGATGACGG

>  <Cat>
True

$$$$
>  <Biopolymer Sequence>
GCAGACAGTTGAAACGCAGGTAACTCAGGGTGGC

>  <Cat>
False

$$$$
>  <Biopolymer Sequence>
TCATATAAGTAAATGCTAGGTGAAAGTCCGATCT

>  <Cat>
True

$$$$
>  <Biopolymer Sequence>
CCTAGCAGGCCAGGGTCACTCAGGCATTTCGCTT

>  <Cat>
False

$$$$
>  <Biopolymer Sequence>
GCAGACTGGTGAAACGCAGGTAACTCAGGGTGGC

>  <Cat>
False

$$$$
>  <Biopolymer Sequence>
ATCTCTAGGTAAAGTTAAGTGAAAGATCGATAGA

>  <Cat>
False

$$$$
>  <Biopolymer Sequence>
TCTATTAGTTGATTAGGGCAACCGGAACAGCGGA

>  <Cat>
True

$$$$
>  <Biopolymer Sequence>
CAAACTAGGACACCGGAAGGTCAAAGTCCGCATG

>  <Cat>
True

$$$$
>  <Biopolymer Sequence>
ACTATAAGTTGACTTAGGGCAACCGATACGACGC

>  <Cat>
False

$$$$
>  <Biopolymer Sequence>
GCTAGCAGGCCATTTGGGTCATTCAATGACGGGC

>  <Cat>
False

$$$$
>  <Biopolymer Sequence>
CGTCCAAGGTCAATGCTAGGTGAGTGAAAGCATT

>  <Cat>
False

$$$$
>  <Biopolymer Sequence>
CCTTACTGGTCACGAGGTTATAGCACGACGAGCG

>  <Cat>
False

$$$$
>  <Biopolymer Sequence>
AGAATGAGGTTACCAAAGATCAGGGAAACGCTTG

>  <Cat>
False

$$$$
>  <Biopolymer Sequence>
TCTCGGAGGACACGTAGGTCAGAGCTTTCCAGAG

>  <Cat>
True

$$$$
>  <Biopolymer Sequence>
CCTAGTTGGTCAGGAGGTCACGCACCGGATATGA

>  <Cat>
True

$$$$
>  <Biopolymer Sequence>
AGAATGAGGTTATACGTCGATCAGGGAAGAAAGT

>  <Cat>
True

$$$$
>  <Biopolymer Sequence>
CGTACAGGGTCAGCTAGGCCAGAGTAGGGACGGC

>  <Cat>
False

$$$$
>  <Biopolymer Sequence>
TCTCGGAGGACACGAAGGTCACAGCTTTCCAGAG

>  <Cat>
True

$$$$
>  <Biopolymer Sequence>
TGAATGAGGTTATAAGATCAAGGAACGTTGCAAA

>  <Cat>
True

$$$$
>  <Biopolymer Sequence>
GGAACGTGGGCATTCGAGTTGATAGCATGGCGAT

>  <Cat>
False

$$$$
>  <Biopolymer Sequence>
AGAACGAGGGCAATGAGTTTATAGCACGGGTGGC

>  <Cat>
False

$$$$
>  <Biopolymer Sequence>
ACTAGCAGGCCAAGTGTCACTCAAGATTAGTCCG

>  <Cat>
True

$$$$
>  <Biopolymer Sequence>
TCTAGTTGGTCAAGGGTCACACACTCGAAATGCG

>  <Cat>
True

$$$$
>  <Biopolymer Sequence>
TCGAGTAGGTTACCAATGGAGCATTCAGCTTTCT

>  <Cat>
True

$$$$
>  <Biopolymer Sequence>
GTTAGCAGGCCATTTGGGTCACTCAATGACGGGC

>  <Cat>
False

$$$$
>  <Biopolymer Sequence>
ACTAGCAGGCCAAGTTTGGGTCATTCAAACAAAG

>  <Cat>
False

$$$$
>  <Biopolymer Sequence>
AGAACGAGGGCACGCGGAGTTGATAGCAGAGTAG

>  <Cat>
False

$$$$
>  <Biopolymer Sequence>
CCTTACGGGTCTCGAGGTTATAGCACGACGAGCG

>  <Cat>
False

$$$$
>  <Biopolymer Sequence>
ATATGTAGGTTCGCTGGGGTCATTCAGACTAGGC

>  <Cat>
True

$$$$
>  <Biopolymer Sequence>
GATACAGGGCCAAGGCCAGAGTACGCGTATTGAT

>  <Cat>
False

$$$$
>  <Biopolymer Sequence>
GCTAGTAGTTGAAAGGGCAACCGAATGATTCTCG

>  <Cat>
True

$$$$
>  <Biopolymer Sequence>
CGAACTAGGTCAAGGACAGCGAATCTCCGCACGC

>  <Cat>
True

$$$$
>  <Biopolymer Sequence>
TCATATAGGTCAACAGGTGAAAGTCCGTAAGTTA

>  <Cat>
True

$$$$
>  <Biopolymer Sequence>
ATCTCTAGGTAAAGTTCAGTTAAAGATCGATAGA

>  <Cat>
True

$$$$
>  <Biopolymer Sequence>
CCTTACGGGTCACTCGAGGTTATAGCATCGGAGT

>  <Cat>
True

$$$$
>  <Biopolymer Sequence>
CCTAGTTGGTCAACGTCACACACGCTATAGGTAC

>  <Cat>
False

$$$$
>  <Biopolymer Sequence>
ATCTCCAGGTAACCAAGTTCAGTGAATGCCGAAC

>  <Cat>
False

$$$$
>  <Biopolymer Sequence>
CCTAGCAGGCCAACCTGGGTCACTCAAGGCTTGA

>  <Cat>
False

$$$$
>  <Biopolymer Sequence>
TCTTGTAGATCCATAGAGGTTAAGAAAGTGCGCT

>  <Cat>
True

$$$$
